The measured values listed here are drawn from patent US20230040770A1.

Biological target: human orexin type 2 receptor (Homo sapiens, UniProt O43614)
Construct: expressed in transfected cells
Sequence (O43614 1-444): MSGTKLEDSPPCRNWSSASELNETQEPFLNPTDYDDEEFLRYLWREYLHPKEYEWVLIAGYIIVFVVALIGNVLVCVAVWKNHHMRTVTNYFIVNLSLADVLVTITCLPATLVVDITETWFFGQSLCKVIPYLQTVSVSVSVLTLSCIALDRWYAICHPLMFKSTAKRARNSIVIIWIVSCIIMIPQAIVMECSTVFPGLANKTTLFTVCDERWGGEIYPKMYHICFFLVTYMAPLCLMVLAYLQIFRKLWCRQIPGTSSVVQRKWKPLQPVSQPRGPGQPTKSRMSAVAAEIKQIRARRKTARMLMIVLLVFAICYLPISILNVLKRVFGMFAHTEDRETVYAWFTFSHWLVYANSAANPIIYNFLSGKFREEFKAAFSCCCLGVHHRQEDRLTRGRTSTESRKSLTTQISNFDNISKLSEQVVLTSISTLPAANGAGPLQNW
Assay: Measurement of orexin type 2 receptor agonist activity (calcium indicator fluorescence, CHO cells forcibly expressing human OX2 receptor)
Type: cell-based
Conditions: compound at 3 μM; 0% = DMSO, 100% = orexin A (human) 10 nM
Assign OX2R agonist activity (3 μM, %) to each entry below.
Answers are plain numbers, in %.

Recorded OX2R agonist activity (3 μM, %), per entry:
INSERT INTO results (molecule, measuredtarget, recordedvalue) VALUES
  ('CS(=O)(=O)N[C@@H]1[C@H](Cc2cccc(-c3cc(F)cc(F)c3)c2F)N(C(=O)[C@H]2CCO2)CC1(F)F [Example 91]', 'human orexin type 2 receptor (Homo sapiens, UniProt O43614)', 94),
  ('CN(C)S(=O)(=O)N[C@@H]1[C@H](Cc2cccc(-c3ccccc3)c2F)N(C(=O)N2CCC2)CC1(F)F [Example 139]', 'human orexin type 2 receptor (Homo sapiens, UniProt O43614)', 93),
  ('CCS(=O)(=O)N[C@H]1[C@@H](F)CN(C(=O)N(C)C)[C@H]1Cc1cccc(-c2ccc(F)c(C)c2)c1F [Example 409]', 'human orexin type 2 receptor (Homo sapiens, UniProt O43614)', 92),
  ('CCS(=O)(=O)N[C@@H]1[C@H](Cc2cccc(-c3cc(F)c(F)cc3F)c2F)N(C(=O)C2CCO2)CC1(F)F (stereo partly shown) [Example 469]', 'human orexin type 2 receptor (Homo sapiens, UniProt O43614)', 91),
  ('CCS(=O)(=O)N[C@H]1[C@@H](F)CN(C(=O)C(C)C)[C@H]1Cc1cccc(-c2cc(F)ccc2F)c1F [Example 292]', 'human orexin type 2 receptor (Homo sapiens, UniProt O43614)', 87);

For each listed entry, give its OX2R agonist activity (3 μM, %).
1. CC(C)C(=O)N1CC(F)(F)[C@H](NS(=O)(=O)C2CC2)[C@@H]1Cc1cccc(-c2cc(F)cc(F)c2)c1F [Example 166]
2. CCS(=O)(=O)N[C@@H]1[C@H](Cc2cccc(-c3cccc(OC)c3)c2F)N(C(=O)C23CC(C2)C3)CC1(F)F [Example 510]

Response:
[98, 97]

* * *

Assign OX2R agonist activity (3 μM, %) to each entry below.
Biological target: human orexin type 2 receptor (Homo sapiens, UniProt O43614)
Construct: expressed in transfected cells
Sequence (O43614 1-444): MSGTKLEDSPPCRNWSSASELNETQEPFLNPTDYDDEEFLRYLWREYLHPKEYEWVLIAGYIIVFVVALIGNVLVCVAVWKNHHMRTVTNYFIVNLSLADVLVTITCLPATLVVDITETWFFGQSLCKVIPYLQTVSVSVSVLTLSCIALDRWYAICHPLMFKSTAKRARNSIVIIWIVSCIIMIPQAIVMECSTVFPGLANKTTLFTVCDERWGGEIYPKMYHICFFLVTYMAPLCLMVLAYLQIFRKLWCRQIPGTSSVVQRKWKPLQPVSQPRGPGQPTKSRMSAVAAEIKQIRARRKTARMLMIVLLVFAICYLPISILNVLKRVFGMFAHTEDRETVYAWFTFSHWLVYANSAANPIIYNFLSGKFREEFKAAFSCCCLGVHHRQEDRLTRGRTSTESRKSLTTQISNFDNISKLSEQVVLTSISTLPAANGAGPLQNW
Experiment: Measurement of orexin type 2 receptor agonist activity (calcium indicator fluorescence, CHO cells forcibly expressing human OX2 receptor)
Assay type: cell-based
Settings: compound at 3 μM; 0% = DMSO, 100% = orexin A (human) 10 nM
Numbers only, in %.

Recorded OX2R agonist activity (3 μM, %), per entry:
INSERT INTO measurements (compound, recordedvalue) VALUES
  ('CCS(=O)(=O)N[C@H]1[C@@H](F)CN(C(=O)N(C)C)[C@H]1Cc1cccc(-c2cccc(Cl)c2)c1F', 95),
  ('CCS(=O)(=O)N[C@@H]1[C@H](Cc2cccc(-c3cc(F)cc(F)c3)c2F)N(C(=O)[C@H]2C[C@@H](F)C2)CC1(F)F', 93),
  ('CCS(=O)(=O)N[C@H]1[C@@H](F)CN(C(=O)C23CC(C2)C3)[C@H]1Cc1cccc(-c2cccc(F)c2F)c1F', 96),
  ('CN(C)S(=O)(=O)N[C@@H]1[C@H](Cc2cccc(-c3cccc(F)c3F)c2F)N(C(=O)C2(O)CCC2)CC1(F)F', 95),
  ('O=C(C1CCO1)N1CC(F)(F)[C@H](NS(=O)(=O)C2CC2)[C@@H]1Cc1cccc(-c2ccccc2)c1F (stereo partly drawn)', 89);

Next, consider the following compound.
Request: Return value of OX2R agonist activity (3 μM, %) for input `CCS(=O)(=O)N[C@@H]1[C@H](Cc2cccc(-c3cc(F)cc(F)c3)c2F)N(C(=O)[C@H]2C[C@H](F)C2)CC1(F)F` , no commentary.
Response: 91

* * *

Target: human orexin type 2 receptor (Homo sapiens)
Construct: expressed in transfected cells
Sequence (O43614 1-444): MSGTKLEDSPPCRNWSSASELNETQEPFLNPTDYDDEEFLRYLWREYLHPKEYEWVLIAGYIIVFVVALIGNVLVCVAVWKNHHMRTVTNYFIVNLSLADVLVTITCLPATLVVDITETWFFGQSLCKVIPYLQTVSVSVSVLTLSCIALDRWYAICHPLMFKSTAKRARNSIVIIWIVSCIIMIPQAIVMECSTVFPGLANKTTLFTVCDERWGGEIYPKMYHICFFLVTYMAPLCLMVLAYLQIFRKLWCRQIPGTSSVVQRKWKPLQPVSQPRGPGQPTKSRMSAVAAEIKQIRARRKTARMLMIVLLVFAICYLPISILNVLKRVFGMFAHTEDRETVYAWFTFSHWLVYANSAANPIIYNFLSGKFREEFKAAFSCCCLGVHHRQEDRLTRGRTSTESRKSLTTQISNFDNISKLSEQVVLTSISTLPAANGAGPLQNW
Assay: Measurement of orexin type 2 receptor agonist activity (calcium indicator fluorescence, CHO cells forcibly expressing human OX2 receptor)
Assay type: cell-based
Conditions: compound at 3 μM; 0% = DMSO, 100% = orexin A (human) 10 nM
measurementType: OX2R agonist activity (3 μM, %)
Answers are plain numbers, in %.

INSERT INTO results (molecule, measurementtype, readoutunit, recordedvalue) VALUES
  ('O=C(N1CCC1)N1CC(F)(F)[C@H](NS(=O)(=O)C2CC2)[C@@H]1Cc1cccc(-c2cccc(F)c2)c1F', 'OX2R agonist activity (3 μM, %)', '%', 98);

For each listed entry, give its OX2R agonist activity (3 μM, %).
1. CC(C)(O)C(=O)N1C[C@H](F)[C@H](NS(=O)(=O)C2CC2)[C@@H]1Cc1cccc(-c2cccc(F)c2)c1F
2. CCS(=O)(=O)N[C@H]1[C@@H](F)CN(C(=O)C(C)C)[C@H]1Cc1cccc(-c2ccccc2)c1F
3. CCS(=O)(=O)N[C@@H]1[C@H](Cc2cccc(-c3ccc(F)c(C)c3)c2F)N(C(=O)C2CCO2)CC1(F)F (some centres unmarked) [Example 476]

Response:
85
83
100

For each listed entry, give its OX2R agonist activity (3 μM, %).
1. CC(C)C(=O)N1C[C@H](F)[C@H](NS(C)(=O)=O)[C@@H]1Cc1cccc(-c2cccc(F)c2F)c1F
2. CCS(=O)(=O)N[C@@H]1[C@H](Cc2cccc(-c3cccc(C(F)F)c3)c2F)N(C(=O)C2CCO2)CC1(F)F (some centres unmarked) [Example 503]
3. CCS(=O)(=O)N[C@H]1[C@@H](F)CN(C(=O)N2CCC2)[C@H]1Cc1cccc(-c2cc(F)cc(F)c2)c1F
4. Cc1cccc(-c2cccc(C[C@H]3[C@@H](NS(=O)(=O)C4CC4)[C@@H](F)CN3C(=O)N(C)C)c2F)c1
5. CCS(=O)(=O)N[C@@H]1[C@H](Cc2cccc(-c3cccc(F)c3F)c2F)N(C(=O)C2(O)CCC2)CC1(F)F

Response:
109
89
86
106
93

For each listed entry, give its OX2R agonist activity (3 μM, %).
1. Cc1cccc(-c2cccc(C[C@H]3[C@@H](NS(=O)(=O)N(C)C)[C@@H](F)CN3C(=O)N3CCC3)c2F)c1
2. CS(=O)(=O)N[C@@H]1[C@H](Cc2cccc(-c3cc(F)cc(Cl)c3)c2F)N(C(=O)C2CC2)CC1(F)F
3. CN(C)C(=O)N1C[C@H](F)[C@H](NS(=O)(=O)N(C)C)[C@@H]1Cc1cccc(-c2cccc(F)c2)c1F
4. Cc1cccc(-c2cccc(C[C@H]3[C@@H](NS(=O)(=O)N(C)C)[C@@H](F)CN3C(=O)N(C)C)c2F)c1
5. CCS(=O)(=O)N[C@H]1[C@@H](F)CN(C(=O)C2CC2)[C@H]1Cc1cccc(-c2cc(F)cc(Cl)c2)c1F

Response:
1. 79
2. 94
3. 102
4. 78
5. 100
